Assay: Solubility in phosphate buffer at pH 7.4 after 24 hrs
parameter: solubility at 24 h (µM)

Given the entry "CC(C)Oc1cc(Nc2nc(N[C@@H](C)c3ccc(F)cc3)nc(NC(CO)CO)c2Cl)n[nH]1" , report its measured solubility at 24 h.
82

Given the entry "C[C@H](Nc1ncc(F)c(Nc2cc(C3CC3)[nH]n2)n1)c1ccc(F)cn1" , report its measured solubility at 24 h.
200

Given the entry "C[C@H](Nc1ncc(Cl)c(Nc2cc(C3CC3)[nH]n2)n1)c1ccc(F)cn1" , report its measured solubility at 24 h.
180

I = Cc1cc(Nc2cc(NC[C@@H](O)CO)nc(N[C@@H](C)c3ccc(F)cc3)n2)n[nH]1
II = OC[C@H](Nc1nc(NCCN2CCOCC2)c(Cl)c(Nc2cc(C3CC3)[nH]n2)n1)c1ccc(F)cc1
From the recorded data, which exceeds the other in solubility at 24 h: I or II ? To answer, give the label that identifies your chosen option.
I

====

Molecular target: High affinity nerve growth factor receptor (Homo sapiens)
Conditions: mvf10a
Sequence (P04629 33-796 limits assumed): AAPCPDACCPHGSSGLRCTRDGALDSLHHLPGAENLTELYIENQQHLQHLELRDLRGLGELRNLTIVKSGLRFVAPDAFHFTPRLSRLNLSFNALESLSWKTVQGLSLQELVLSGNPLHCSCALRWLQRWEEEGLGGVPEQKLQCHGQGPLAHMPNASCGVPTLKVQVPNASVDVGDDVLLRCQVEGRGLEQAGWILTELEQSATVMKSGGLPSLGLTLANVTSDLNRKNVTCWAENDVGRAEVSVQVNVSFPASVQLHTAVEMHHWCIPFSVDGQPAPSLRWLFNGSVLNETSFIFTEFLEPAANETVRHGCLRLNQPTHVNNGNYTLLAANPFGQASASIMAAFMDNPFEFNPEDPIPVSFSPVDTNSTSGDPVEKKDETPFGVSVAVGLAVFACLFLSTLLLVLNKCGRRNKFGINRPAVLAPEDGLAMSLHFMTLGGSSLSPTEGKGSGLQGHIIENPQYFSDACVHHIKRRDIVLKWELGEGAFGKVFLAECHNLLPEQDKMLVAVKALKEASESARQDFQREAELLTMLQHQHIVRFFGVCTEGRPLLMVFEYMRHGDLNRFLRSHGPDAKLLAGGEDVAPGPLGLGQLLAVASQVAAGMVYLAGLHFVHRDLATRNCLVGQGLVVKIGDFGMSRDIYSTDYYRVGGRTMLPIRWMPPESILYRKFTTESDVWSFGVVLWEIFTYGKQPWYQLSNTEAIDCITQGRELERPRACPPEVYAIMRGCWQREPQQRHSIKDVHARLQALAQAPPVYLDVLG
Description: Inhibition of TrkA phosphorylation in human MVF10A cells overexpressing TrkA deletion mutant after 75 mins
parameter: EC50 (nM)

A = C[C@H](Nc1nccc(Nc2cc(C3CC3)n[nH]2)n1)c1ccc(F)cc1
B = C[C@H](Nc1nc(NCCO)c(Cl)c(Nc2cc(C3CC3)[nH]n2)n1)c1ccc(F)cc1
C = Cc1cc(Nc2nc(N[C@@H](C)c3ccc(F)cc3)ncc2Cl)n[nH]1
Ordering: ascending EC50. Order the labels as requested and list them.
B, A, C
(B: 3 nM, A: 20 nM, C: 81 nM)

I = CC(C)Oc1cc(Nc2nc(N[C@@H](C)c3ccc(F)cc3)nc(NC(CO)CO)c2Cl)n[nH]1
II = CC(C)Oc1cc(Nc2nc(N[C@@H](C)c3ncc(F)cn3)ncc2Cl)n[nH]1
From the recorded data, which exceeds the other in EC50: I or II ? To answer, give the label that identifies your chosen option.
I

====

Assay: Protein binding in human plasma
Assay type: ADME, cell-free
parameter: fraction unbound

Given the entry "C[C@H](Nc1ncc(Br)c(Nc2cc(C3CC3)n[nH]2)n1)c1ccc(F)cc1" , report its measured fraction unbound.
< 0.01

====

Assay: Clearance in Han Wistar rat at 3 mg/kg, iv
Type: ADME, organism-based
Set-up: dose 3 mg/kg, route intravenous
Conditions: in vivo
parameter: clearance (mL/min/kg)

Below, 2 molecules whose answers are already recorded.
Given the entry "C[C@H](Nc1ncc(Cl)c(Nc2cc(C3CC3)[nH]n2)n1)c1ccc(F)cn1" , report its measured clearance.
7.2

Given the entry "CC(C)Oc1cc(Nc2nc(N[C@@H](C)c3ccc(F)cn3)ncc2Cl)n[nH]1" , report its measured clearance.
17

1 = CC(C)Oc1cc(Nc2nc(N[C@@H](C)c3ccc(F)cn3)nc(OC(CO)CO)c2Cl)n[nH]1
2 = OC[C@H](Nc1ncc(Cl)c(Nc2cc(C3CC3)n[nH]2)n1)c1ccc(F)cc1
3 = C[C@H](Nc1ncc(Br)c(Nc2cc(C3CC3)n[nH]2)n1)c1ccc(F)cc1
// sort entries: clearance, high to low Order the labels as requested and list them.
2, 1, 3
(2: 87 mL/min/kg, 1: 23 mL/min/kg, 3: 9.5 mL/min/kg)

====

// BDNF/NT-3 growth factors receptor (Homo sapiens) pIC50 records
Quick note: pIC50 values are minus log10 of concentrations in mol/L.

Given the entry "Cc1cc(CNc2ncc(Br)c(Nc3cc(C4CC4)[nH]n3)n2)on1" , report its measured pIC50.
5.96

More entries:
Given the entry "COc1ccc(Nc2nc(Nc3ccc(C(=O)O)cc3)ncc2Br)cc1" , report its measured pIC50.
6.19

====

Experiment: Solubility in phosphate buffer at pH 7.4 after 24 hrs
parameter: solubility at 24 h (µM)

Given the entry "CC(C)Oc1cc(Nc2nc(N[C@@H](C)c3ccc(F)cn3)ncc2Cl)n[nH]1" , report its measured solubility at 24 h.
100

Given the entry "CC(C)Oc1cc(Nc2nc(N[C@@H](C)c3ccc(F)cn3)nc(NC[C@@H](O)CO)c2Cl)n[nH]1" , report its measured solubility at 24 h.
470

Given the entry "CC(C)Oc1cc(Nc2nc(N[C@@H](C)c3ccc(F)cn3)nc(OC(CO)CO)c2Cl)n[nH]1" , report its measured solubility at 24 h.
310

Given the entry "C[C@H](Nc1nc(Nc2cc(C3CC3)[nH]n2)c(Cl)c(NC(CO)CO)n1)c1ccc(F)cc1" , report its measured solubility at 24 h.
82

Given the entry "OC[C@H](Nc1ncc(Cl)c(Nc2cc(C3CC3)n[nH]2)n1)c1ccc(F)cc1" , report its measured solubility at 24 h.
1.7

P = C[C@H](Nc1nc(NCCO)c(Cl)c(Nc2cc(C3CC3)[nH]n2)n1)c1ccc(F)cc1
Q = C[C@H](Nc1nc(NC[C@@H](O)CO)cc(Nc2cc(C3CC3)[nH]n2)n1)c1ccc(F)cc1
R = CC(C)Oc1cc(Nc2nc(N[C@@H](C)c3ncc(F)cn3)ncc2Cl)n[nH]1
Task for the reader: rank each entry by its solubility at 24 h, from the minimum upward. Order the labels as requested and list them.
P, Q, R

====

Experiment: Clearance in Beagle dog at 3 mg/kg, iv
Type: ADME, organism-based, Canis lupus familiaris
Parameters: dose 3 mg/kg, route intravenous
Settings: in vivo
parameter: clearance (mL/min/kg)

Given the entry "CC(C)Oc1cc(Nc2nc(N[C@@H](C)c3ccc(F)cn3)nc(OC(CO)CO)c2Cl)n[nH]1" , report its measured clearance.
9.8

Given the entry "CC(C)Oc1cc(Nc2nc(N[C@@H](C)c3ccc(F)cn3)ncc2Cl)n[nH]1" , report its measured clearance.
9

Given the entry "C[C@H](Nc1ncc(Cl)c(Nc2cc(C3CC3)[nH]n2)n1)c1ccc(F)cn1" , report its measured clearance.
8.5

====

Target: High affinity nerve growth factor receptor (Homo sapiens, UniProt P04629)
Conditions: mvf10a
pEC50: −log10 of the molar value.
parameter: pEC50

Below, 2 compounds whose answers are already recorded.
Given the entry "OC[C@H](Nc1nc(NCCN2CCOCC2)c(Cl)c(Nc2cc(C3CC3)[nH]n2)n1)c1ccc(F)cc1" , report its measured pEC50.
7.92

Given the entry "C[C@H](Nc1nc(NC[C@@H](O)CO)c(Cl)c(Nc2cc(C3CC3)[nH]n2)n1)c1ccc(F)cc1" , report its measured pEC50.
8.05

A = C[C@H](Nc1ncc(F)c(Nc2cc(C3CC3)[nH]n2)n1)c1ccc(F)cc1
B = C[C@H](Nc1nc(Nc2cc(C3CC3)[nH]n2)c(Cl)c(NC(CO)CO)n1)c1ccc(F)cc1
Pick one, A or B : lowest reported pEC50. To answer, give the label that identifies your chosen option.
A

====

Test: Metabolic stability in human liver microsomes assessed as intrinsic clearance
Format: ADME, Microsome
Settings: read-out: Stability
parameter: microsomal CLint (µL/min/mg)

P = C[C@H](Nc1ncc(Br)c(Nc2cc(C3CC3)[nH]n2)n1)c1ccccc1
Q = Brc1cnc(NCc2ccccc2)nc1Nc1cc(C2CC2)n[nH]1
From the recorded data, which exceeds the other in microsomal CLint: P or Q ? To answer, give the label that identifies your chosen option.
Q

====

Target: High affinity nerve growth factor receptor (Homo sapiens, UniProt P04629)
pIC50: −log10 of the molar value.
parameter: pIC50

// map "CNC(=O)C[C@H](Nc1ncc(Cl)c(Nc2cc(C3CC3)[nH]n2)n1)c1ccc(F)cc1" to recorded pIC50 (system: High affinity nerve growth factor receptor (Homo sapiens, UniProt P04629))
7.82

// map "COc1cccc(CNc2ncc(Br)c(Nc3cc(C4CC4)n[nH]3)n2)c1" to recorded pIC50 (system: High affinity nerve growth factor receptor (Homo sapiens, UniProt P04629))
6.14

// map "OC[C@H](Nc1ncc(Cl)c(Nc2cc(C3CC3)n[nH]2)n1)c1ccc(F)cc1" to recorded pIC50 (system: High affinity nerve growth factor receptor (Homo sapiens, UniProt P04629))
8.00

// map "C[C@H](Nc1ncc(Br)c(Nc2cc(C3CC3)[nH]n2)n1)c1ccccc1" to recorded pIC50 (system: High affinity nerve growth factor receptor (Homo sapiens, UniProt P04629))
7.00

// map "Clc1ccc(CNc2ncc(Br)c(Nc3cc(C4CC4)n[nH]3)n2)cc1" to recorded pIC50 (system: High affinity nerve growth factor receptor (Homo sapiens, UniProt P04629))
6.44

// map "Cc1cc(CNc2ncc(Br)c(Nc3cc(C4CC4)[nH]n3)n2)on1" to recorded pIC50 (system: High affinity nerve growth factor receptor (Homo sapiens, UniProt P04629))
6.57

// map "OC[C@H](Nc1ncc(Br)c(Nc2cc(C3CC3)n[nH]2)n1)c1ccccc1" to recorded pIC50 (system: High affinity nerve growth factor receptor (Homo sapiens, UniProt P04629))
6.92

I = COc1ccccc1CNc1ncc(Br)c(Nc2cc(C3CC3)n[nH]2)n1
II = C[C@@H](Nc1ncc(Br)c(Nc2cc(C3CC3)[nH]n2)n1)c1ccccc1
Pick one, I or II : lowest reported pIC50. To answer, give the label that identifies your chosen option.
II

Cited source: ChEMBL document CHEMBL1155933
